System: Escherichia coli TOP10
Assay: shrunken log2 fold change of peptide-encoding DNA abundance (4.5 h post-induction vs induction); higher = less antimicrobial activity (less host growth inhibition)
Settings: time post-induction: 4.5 h; library: site-saturation at positions 5, 18, 19, 20
Please go through the items and note down their shrunken log2 fold change.
No unit in the answer, only the number.

## Input # returns recorded shrunken log2 fold change (system: Escherichia coli TOP10) for `RRIRGRPPRLPRPRPRPFDEPRP`
## Output 0.294

## Input # returns recorded shrunken log2 fold change (system: Escherichia coli TOP10) for `RRIRFRPPRLPRPRPRPNNQPRP`
## Output -0.559

## Input # returns recorded shrunken log2 fold change (system: Escherichia coli TOP10) for `RRIRDRPPRLPRPRPRPIAEPRP`
## Output 0.195

## Input # returns recorded shrunken log2 fold change (system: Escherichia coli TOP10) for `RRIRVRPPRLPRPRPRPMYRPRP`
## Output 0.0262

## Input # returns recorded shrunken log2 fold change (system: Escherichia coli TOP10) for `RRIRARPPRLPRPRPRPYSMPRP`
## Output -0.484

## Input # returns recorded shrunken log2 fold change (system: Escherichia coli TOP10) for `RRIRDRPPRLPRPRPRPMNLPRP`
## Output -0.1

## Input # returns recorded shrunken log2 fold change (system: Escherichia coli TOP10) for `RRIRSRPPRLPRPRPRPCQVPRP`
## Output -0.0521

## Input # returns recorded shrunken log2 fold change (system: Escherichia coli TOP10) for `RRIRHRPPRLPRPRPRPHAFPRP`
## Output -0.0301

## Input # returns recorded shrunken log2 fold change (system: Escherichia coli TOP10) for `RRIRRRPPRLPRPRPRPWAHPRP`
## Output 0.0718

## Input # returns recorded shrunken log2 fold change (system: Escherichia coli TOP10) for `RRIRERPPRLPRPRPRPRDIPRP`
## Output -0.0401

## Input # returns recorded shrunken log2 fold change (system: Escherichia coli TOP10) for `RRIRLRPPRLPRPRPRPELNPRP`
## Output 0.145

## Input # returns recorded shrunken log2 fold change (system: Escherichia coli TOP10) for `RRIRNRPPRLPRPRPRPQITPRP`
## Output -1.07

## Input # returns recorded shrunken log2 fold change (system: Escherichia coli TOP10) for `RRIRFRPPRLPRPRPRPIYWPRP`
## Output 0.0843

## Input # returns recorded shrunken log2 fold change (system: Escherichia coli TOP10) for `RRIRFRPPRLPRPRPRPHYDPRP`
## Output -0.397

## Input # returns recorded shrunken log2 fold change (system: Escherichia coli TOP10) for `RRIRIRPPRLPRPRPRPCADPRP`
## Output -0.289

## Input # returns recorded shrunken log2 fold change (system: Escherichia coli TOP10) for `RRIRGRPPRLPRPRPRPVFLPRP`
## Output -0.0506

## Input # returns recorded shrunken log2 fold change (system: Escherichia coli TOP10) for `RRIRARPPRLPRPRPRPAEIPRP`
## Output 0.233

## Input # returns recorded shrunken log2 fold change (system: Escherichia coli TOP10) for `RRIRGRPPRLPRPRPRPATAPRP`
## Output 0.979

## Input # returns recorded shrunken log2 fold change (system: Escherichia coli TOP10) for `RRIRKRPPRLPRPRPRPVTYPRP`
## Output -0.0821

## Input # returns recorded shrunken log2 fold change (system: Escherichia coli TOP10) for `RRIRIRPPRLPRPRPRPMIRPRP`
## Output -0.511

## Input # returns recorded shrunken log2 fold change (system: Escherichia coli TOP10) for `RRIRVRPPRLPRPRPRPWNLPRP`
## Output -0.14

## Input # returns recorded shrunken log2 fold change (system: Escherichia coli TOP10) for `RRIRDRPPRLPRPRPRPQAPPRP`
## Output -0.0631

## Input # returns recorded shrunken log2 fold change (system: Escherichia coli TOP10) for `RRIRGRPPRLPRPRPRPKAEPRP`
## Output 1.35

## Input # returns recorded shrunken log2 fold change (system: Escherichia coli TOP10) for `RRIRPRPPRLPRPRPRPASEPRP`
## Output 0.0613

## Input # returns recorded shrunken log2 fold change (system: Escherichia coli TOP10) for `RRIRKRPPRLPRPRPRPLIVPRP`
## Output -0.223

## Input # returns recorded shrunken log2 fold change (system: Escherichia coli TOP10) for `RRIRVRPPRLPRPRPRPLCTPRP`
## Output -0.0347

## Input # returns recorded shrunken log2 fold change (system: Escherichia coli TOP10) for `RRIRERPPRLPRPRPRPRCGPRP`
## Output 0.146

## Input # returns recorded shrunken log2 fold change (system: Escherichia coli TOP10) for `RRIRLRPPRLPRPRPRPALCPRP`
## Output 0.00966

## Input # returns recorded shrunken log2 fold change (system: Escherichia coli TOP10) for `RRIRFRPPRLPRPRPRPCGIPRP`
## Output -0.168

## Input # returns recorded shrunken log2 fold change (system: Escherichia coli TOP10) for `RRIRARPPRLPRPRPRPMDHPRP`
## Output 0.267

## Input # returns recorded shrunken log2 fold change (system: Escherichia coli TOP10) for `RRIRTRPPRLPRPRPRPAKLPRP`
## Output 0.108

## Input # returns recorded shrunken log2 fold change (system: Escherichia coli TOP10) for `RRIRARPPRLPRPRPRPKYAPRP`
## Output 0.354

## Input # returns recorded shrunken log2 fold change (system: Escherichia coli TOP10) for `RRIRTRPPRLPRPRPRPLPCPRP`
## Output 0.0112

## Input # returns recorded shrunken log2 fold change (system: Escherichia coli TOP10) for `RRIRQRPPRLPRPRPRPQWFPRP`
## Output 0.0435

## Input # returns recorded shrunken log2 fold change (system: Escherichia coli TOP10) for `RRIRTRPPRLPRPRPRPNVWPRP`
## Output 0.0477

## Input # returns recorded shrunken log2 fold change (system: Escherichia coli TOP10) for `RRIRVRPPRLPRPRPRPHNFPRP`
## Output -0.418

## Input # returns recorded shrunken log2 fold change (system: Escherichia coli TOP10) for `RRIRTRPPRLPRPRPRPPQNPRP`
## Output 0.329

## Input # returns recorded shrunken log2 fold change (system: Escherichia coli TOP10) for `RRIRHRPPRLPRPRPRPPDFPRP`
## Output 0.0633

## Input # returns recorded shrunken log2 fold change (system: Escherichia coli TOP10) for `RRIRNRPPRLPRPRPRPQKPPRP`
## Output 0.0646

## Input # returns recorded shrunken log2 fold change (system: Escherichia coli TOP10) for `RRIRIRPPRLPRPRPRPLSPPRP`
## Output 1.35

## Input # returns recorded shrunken log2 fold change (system: Escherichia coli TOP10) for `RRIRLRPPRLPRPRPRPHLGPRP`
## Output -0.105

## Input # returns recorded shrunken log2 fold change (system: Escherichia coli TOP10) for `RRIRHRPPRLPRPRPRPDKAPRP`
## Output -0.468

## Input # returns recorded shrunken log2 fold change (system: Escherichia coli TOP10) for `RRIRGRPPRLPRPRPRPVQQPRP`
## Output 0.515

## Input # returns recorded shrunken log2 fold change (system: Escherichia coli TOP10) for `RRIRTRPPRLPRPRPRPRTEPRP`
## Output 0.153

## Input # returns recorded shrunken log2 fold change (system: Escherichia coli TOP10) for `RRIRHRPPRLPRPRPRPSTHPRP`
## Output -0.564

## Input # returns recorded shrunken log2 fold change (system: Escherichia coli TOP10) for `RRIRVRPPRLPRPRPRPVGAPRP`
## Output 0.329

## Input # returns recorded shrunken log2 fold change (system: Escherichia coli TOP10) for `RRIRKRPPRLPRPRPRPHAMPRP`
## Output -0.0147

## Input # returns recorded shrunken log2 fold change (system: Escherichia coli TOP10) for `RRIRCRPPRLPRPRPRPKFQPRP`
## Output -0.0341

## Input # returns recorded shrunken log2 fold change (system: Escherichia coli TOP10) for `RRIRSRPPRLPRPRPRPMRMPRP`
## Output 0.323

## Input # returns recorded shrunken log2 fold change (system: Escherichia coli TOP10) for `RRIRSRPPRLPRPRPRPKTGPRP`
## Output -0.071

## Input # returns recorded shrunken log2 fold change (system: Escherichia coli TOP10) for `RRIRTRPPRLPRPRPRPYGIPRP`;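 further: peptides expressed intracellularly from a pBAD plasmid library in pooled LB shake-flask culture, induced with 0.3% L-arabinose, DNA abundance read by NGS, three biological replicates, DESeq2 with apeglm shrinkage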
## Output -0.0927
